test description: self-splicing fitness, log relative to wild type (ln ratio); higher = more splicing; Tetrahymena group I intron in knt gene, E. coli kanamycin selection, DiMSum; sequences stand for … in CUCUCU…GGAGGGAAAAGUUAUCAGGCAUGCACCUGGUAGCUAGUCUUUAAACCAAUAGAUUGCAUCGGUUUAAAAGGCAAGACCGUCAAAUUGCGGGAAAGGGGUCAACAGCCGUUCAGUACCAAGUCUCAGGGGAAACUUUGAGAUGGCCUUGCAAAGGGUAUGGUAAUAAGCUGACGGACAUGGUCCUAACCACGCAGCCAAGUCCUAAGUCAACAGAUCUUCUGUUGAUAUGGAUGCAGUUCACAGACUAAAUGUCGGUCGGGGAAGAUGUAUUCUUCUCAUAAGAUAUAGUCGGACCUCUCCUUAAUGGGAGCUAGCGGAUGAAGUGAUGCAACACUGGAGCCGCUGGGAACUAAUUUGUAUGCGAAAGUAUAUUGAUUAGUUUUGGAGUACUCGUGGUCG;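 further: selection with 25 µg/mL kanamycin versus none on LB agar overnight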
measurement context: 37 °C
Decision: self-splicing fitness (ln) >= -1 yields 1 (yes), all other cases yield 0 (no).

| seq | cat |
| --- | --- |
| UCGGAGCAAUAUUACGUCAU | 0 (no) |
| GGACAGCAAUAUUACGUGAG | 1 (yes) |
| UUUUAGCAAUAUUACGCGUG | 1 (yes) |
| GGAUAGCAAUAUUACGGCAA | 1 (yes) |
| GGGAAGCAAUAUUACGGUUC | 0 (no) |

Req: Item CUGUAGCAAUAUUACGAUGG with self-splicing fitness (ln) of -1 or above?
Resp: 0 (no)

Req: Can GAAGAGCAAUAUUACGGUUC be said to have self-splicing fitness (ln) at or above -1?
Resp: 0 (no)

====

test description: self-splicing fitness, log relative to wild type (ln ratio); higher = more splicing; Tetrahymena group I intron in knt gene, E. coli kanamycin selection, DiMSum; sequences stand for … in CUCUCU…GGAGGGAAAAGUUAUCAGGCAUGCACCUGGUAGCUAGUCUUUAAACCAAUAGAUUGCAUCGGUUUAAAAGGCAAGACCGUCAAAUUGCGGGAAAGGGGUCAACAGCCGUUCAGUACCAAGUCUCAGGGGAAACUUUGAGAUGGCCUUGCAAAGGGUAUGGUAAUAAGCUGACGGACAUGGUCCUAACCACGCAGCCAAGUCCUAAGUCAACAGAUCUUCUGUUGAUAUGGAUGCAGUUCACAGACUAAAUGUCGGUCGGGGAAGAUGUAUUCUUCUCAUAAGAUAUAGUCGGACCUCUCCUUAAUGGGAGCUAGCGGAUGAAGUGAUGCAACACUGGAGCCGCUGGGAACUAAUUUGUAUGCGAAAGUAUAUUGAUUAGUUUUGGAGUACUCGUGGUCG
measurement context: 30 °C
self-splicing fitness (ln) by entry:
Output spec: single numeric token, no unit.

Worked cases, self-splicing fitness (ln) given:
| seq | self-splicing fitness (ln) |
| --- | --- |
| UAUGAGCAAUAUUACGGACA | -2.64 |
| ACUAAGCAAUAUUACGUACC | -1.05 |
| CUUAAGCAAUAUUACGAAUU | -3.26 |
| UCGCAGCAAUAUUACGUACG | -1.12 |
| AGGUAGCAAUAUUACGACAA | -0.614 |

Req: Bench note: what self-splicing fitness (ln) did UCGCAGCAAUAUUACGCGAA show?
Resp: -1.65

Req: Which measured self-splicing fitness (ln) value corresponds to GACAAGCAAUAUUACGGGCG ?
Resp: -1.27

Req: Recorded self-splicing fitness (ln) for ACGCAGCAAUAUUACGCAAC , please?
Resp: -3.91

Req: Name the recorded self-splicing fitness (ln) for GCCGAGCAAUAUUACGUAAU .
Resp: -1.28

Req: Which measured self-splicing fitness (ln) value corresponds to GCAGAGCAAUAUUACGAAUA ?
Resp: -3.67

Req: Look at this sequence and give its reported self-splicing fitness (ln). CUCAAGCAAUAUUACGUUAU
Resp: -3.81

Req: May I ask what self-splicing fitness (ln) has been recorded for AAAUAGCAAUAUUACGCAUG ?
Resp: -1.27

Req: I'd like to know its self-splicing fitness (ln). The sequence in question is GGUCAGCAAUAUUACGAUUG
Resp: -0.673

Req: What does the data say about its self-splicing fitness (ln)? Entry: CGCAAGCAAUAUUACGUGUG
Resp: -4.31

Req: Which self-splicing fitness (ln) value is on record for GUUCAGCAAUAUUACGCUUU ?
Resp: -0.726

Req: If you can, please state the reported self-splicing fitness (ln) value of GACAAGCAAUAUUACGGAUA .
Resp: -1.52

Req: Consider the sequence CCGAAGCAAUAUUACGUUCG and give its measured self-splicing fitness (ln).
Resp: -3.33

Req: Would you kindly share the measured self-splicing fitness (ln) for GACCAGCAAUAUUACGCCGU ?
Resp: -0.962

Req: Given the entry CCCUAGCAAUAUUACGAUCU , report its measured self-splicing fitness (ln).
Resp: -3.92

Req: Any idea what its self-splicing fitness (ln) is? The sequence is AACAAGCAAUAUUACGCCGU
Resp: -1.5
